species: Rattus norvegicus; assay: DrugMatrix - Regimen: Daily Repeat; format: toxicity, organism-based, Sprague-Dawley; parameters: regimen Daily Repeat, gender Male, age 6-8 weeks; details: in vivo, po, 0 mg/kg, 72 h, tissue Plasma, route oral GAVAGE, dose level Control, time 3 day, vehicle 100 % WATER
Record form. Attribute: URIC ACID. Fill in for each entry.
One number for each entry, in mg/dL.

>  <compound>
Cc1onc(-c2ccccc2Cl)c1C(=O)N[C@@H]1C(=O)N2[C@@H]1SC(C)(C)[C@@H]2C(=O)O

>  <quantity.kind>
URIC ACID

>  <observed.value>
1.65

$$$$
>  <compound>
COc1cc2nc(N3CCN(C(=O)C4COc5ccccc5O4)CC3)nc(N)c2cc1OC (centres undefined)

>  <quantity.kind>
URIC ACID

>  <observed.value>
1.82

$$$$
>  <compound>
NCCCCCC(=O)O

>  <quantity.kind>
URIC ACID

>  <observed.value>
1.65

$$$$
>  <compound>
CC(O)CO (centres undefined)

>  <quantity.kind>
URIC ACID

>  <observed.value>
1.65

$$$$
>  <compound>
C[C@H]1c2cccc(O)c2C(=O)C2=C(O)[C@]3(O)C(=O)C(C(N)=O)=C(O)[C@@H](N(C)C)[C@@H]3[C@@H](O)[C@@H]21.O

>  <quantity.kind>
URIC ACID

>  <observed.value>
1.82

$$$$

Below are some compounds; for each one, tell me its URIC ACID.
1. C[C@](N)(Cc1ccc(O)c(O)c1)C(=O)O
2. c1ccc([C@H]2CN3CCSC3=N2)cc1

2.08
1.42

Below are some compounds; for each one, tell me its URIC ACID.
1. CN(C)CCCN1c2ccccc2Sc2ccc(Cl)cc21
2. N[C@@H](Cc1ccc(O)c(O)c1)C(=O)O

0.77
1.82

Below are some compounds; for each one, tell me its URIC ACID.
1. C[C@H](CS)C(=O)N1CCC[C@H]1C(=O)O
2. Clc1cccc(Cl)c1N=C1NCCN1
3. CNNCc1ccc(C(=O)NC(C)C)cc1
4. C=CCC1(C(C)CCC)C(=O)NC(=O)NC1=O (centres undefined)
5. Cn1cc[nH]c1=S

1: 2.87; 2: 1.67; 3: 0.5; 4: 0.65; 5: 0.65

----------
Record form. Attribute: MEAN CORPUSCULAR VOLUME. Fill in for each entry.
organism: Rattus norvegicus; experiment: DrugMatrix - Regimen: Daily Repeat; format: toxicity, organism-based, Sprague-Dawley; design: regimen Daily Repeat, gender Male, age 6-8 weeks; details: in vivo, po, 0 mg/kg, 120 h, tissue Blood, route oral GAVAGE, dose level Control, time 5 day, […]
One number for each entry, in fL.

>  <compound>
Cc1ccc(-c2cc(C(F)(F)F)nn2-c2ccc(S(N)(=O)=O)cc2)cc1 [CELECOXIB]

>  <value.units>
fL

>  <MEAN CORPUSCULAR VOLUME>
63.38

$$$$
>  <compound>
O=C(O)CCCc1ccc(N(CCCl)CCCl)cc1 [CHLORAMBUCIL]

>  <value.units>
fL

>  <MEAN CORPUSCULAR VOLUME>
63.38

$$$$
>  <compound>
CCC(C)n1ncn(-c2ccc(N3CCN(c4ccc(OCC5COC(Cn6cncn6)(c6ccc(Cl)cc6Cl)O5)cc4)CC3)cc2)c1=O (configuration not stated) [ITRACONAZOLE]

>  <value.units>
fL

>  <MEAN CORPUSCULAR VOLUME>
63.38

$$$$
>  <compound>
O=c1oc2ccccc2c(O)c1Cc1c(O)c2ccccc2oc1=O [DICUMAROL]

>  <value.units>
fL

>  <MEAN CORPUSCULAR VOLUME>
63.08

$$$$
>  <compound>
C[C@H]1O[C@@H](O[C@H]2[C@@H](O)C[C@H](O[C@H]3[C@@H](O)C[C@H](O[C@H]4CC[C@@]5(C)[C@H](CC[C@@H]6[C@@H]5C[C@@H](O)[C@]5(C)[C@@H](C7=CC(=O)OC7)CC[C@]65O)C4)O[C@@H]3C)O[C@@H]2C)C[C@H](O)[C@@H]1O [DIGOXIN]

>  <value.units>
fL

>  <MEAN CORPUSCULAR VOLUME>
62.38

$$$$
>  <compound>
C[C@@H]1CN(c2c(F)c(N)c3c(=O)c(C(=O)O)cn(C4CC4)c3c2F)C[C@H](C)N1 [SPARFLOXACIN]

>  <value.units>
fL

>  <MEAN CORPUSCULAR VOLUME>
62.48

$$$$

Turning now to a further compound:
Entry CC(C)C(=O)Nc1ccc([N+](=O)[O-])c(C(F)(F)F)c1 [FLUTAMIDE] has what MEAN CORPUSCULAR VOLUME?
61.03
